# pEC50 annotations
Target: T1, Full-length cynomolgus monkey TIGIT on CHO-K1 cells (CHO-K1 cynomolgus monkey TIGIT) (cynomolgus monkey)
T1 construct: NCBI XP_015300911.1
T1 sequence (chain, as listed by the source limits assumed): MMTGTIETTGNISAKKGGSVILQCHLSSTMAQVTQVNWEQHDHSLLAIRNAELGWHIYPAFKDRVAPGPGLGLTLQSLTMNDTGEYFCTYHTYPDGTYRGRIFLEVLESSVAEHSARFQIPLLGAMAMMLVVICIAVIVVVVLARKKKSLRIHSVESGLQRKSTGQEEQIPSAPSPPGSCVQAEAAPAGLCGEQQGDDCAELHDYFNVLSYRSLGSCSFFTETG
Assay: FACS; CHO-K1 cynomolgus monkey TIGIT
Just the number, please; pEC50 means minus log10 of the concentration in mol/L.

TIGIT-005-H2L1d (antibody, V domains shown, Humanized anti-TIGIT antibody with NG-site mutation in VL) VH: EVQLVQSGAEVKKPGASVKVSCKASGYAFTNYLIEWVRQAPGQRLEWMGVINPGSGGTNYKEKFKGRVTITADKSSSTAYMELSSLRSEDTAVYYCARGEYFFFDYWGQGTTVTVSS VL: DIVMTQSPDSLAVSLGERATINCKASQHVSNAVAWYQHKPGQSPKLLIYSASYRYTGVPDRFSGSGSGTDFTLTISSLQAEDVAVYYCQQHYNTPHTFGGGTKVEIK :: 9.20
TIGIT-002-H4L3 (antibody, V domains shown, Humanized anti-TIGIT antibody) VH: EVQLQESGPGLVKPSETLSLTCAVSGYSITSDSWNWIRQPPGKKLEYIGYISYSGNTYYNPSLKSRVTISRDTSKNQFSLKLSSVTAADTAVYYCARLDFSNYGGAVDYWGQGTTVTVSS VL: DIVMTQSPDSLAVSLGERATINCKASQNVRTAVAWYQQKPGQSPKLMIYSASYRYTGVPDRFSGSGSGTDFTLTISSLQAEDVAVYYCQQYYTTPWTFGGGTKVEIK :: 9.14
TIGIT-006-H5L3 (antibody, V domains shown, Humanized anti-TIGIT antibody) VH: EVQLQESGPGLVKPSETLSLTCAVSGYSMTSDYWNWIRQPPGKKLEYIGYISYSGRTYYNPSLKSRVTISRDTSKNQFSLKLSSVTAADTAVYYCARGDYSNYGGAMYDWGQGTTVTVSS VL: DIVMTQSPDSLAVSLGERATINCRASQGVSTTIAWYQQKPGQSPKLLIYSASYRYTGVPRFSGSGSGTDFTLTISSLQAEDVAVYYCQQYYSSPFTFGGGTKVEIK :: 9.04

# evaluate next
Given TIGIT-070-H1L1 (antibody, V domains shown, Humanized anti-TIGIT antibody) VH: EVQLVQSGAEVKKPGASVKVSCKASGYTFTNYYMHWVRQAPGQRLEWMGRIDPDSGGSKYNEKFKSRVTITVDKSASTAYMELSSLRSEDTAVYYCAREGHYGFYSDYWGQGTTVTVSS VL: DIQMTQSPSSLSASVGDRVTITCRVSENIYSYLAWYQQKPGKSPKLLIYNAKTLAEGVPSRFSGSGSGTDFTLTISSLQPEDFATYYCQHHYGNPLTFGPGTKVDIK , state its recorded pEC50.
8.98
